Where do these numbers come from? They come from ChEMBL document CHEMBL1201862.

GI50 listing for selected compounds.
# Tested on: ACHN
# ASSAY_COMMENT: NCI tumour cell line growth inhibition, 48 h
Activity calls are given as the source filed them. Cut-off read from the data, not from the text of the source: active = GI50 up to about 1.1 µM and inactive = higher.

Worked set:
COc1ccc(NC(=O)COC(=O)c2cccc3c(=O)c4ccccc4[nH]c23)cc1 : 21.1 µM (inactive)
C[C@]12CCC[C@H](OC=O)C1(O)C[C@H](C(=O)O)CC2 (stereo not given in full) : > 100 µM (inactive)
CC(NC(=O)Cc1ccc(OP(=O)(OCc2ccc([N+](=O)[O-])o2)N(C)CCCCCl)cc1)c1ccc(OCC2CCCCC2)c(C(N)=O)c1 (stereo not given) : 3.56 µM (inactive)
COC(=O)Cc1c(C2=Nc3ccccc3C2(O)CC(=O)OC)[nH]c2ccccc12 (stereo not given) : 34.9 µM (inactive)
O=NN(CCCl)C(=O)N[C@H]1CCCC[C@@H]1Cl : 57.7 µM (inactive)

Which value of GI50 has been reported for "Oc1cc(CF)nc(S)n1" in the records?
> 100 µM (inactive)

Another compound: "COc1ccc(OC)c2sc(N3C(=O)/C(=C/c4ccccc4S)N=C3c3ccccc3)nc12"
34.8 µM (inactive)

Another compound: "O=[N+]([O-])C(=C1Nc2ccccc2N1)/C(Cl)=C(/Cl)N1CCOCC1"
71.8 µM (inactive)

Another compound: COC(=O)c1sc2ncc3c(c2c1N)CC(C)CC3 (stereo not given)
> 100 µM (inactive)

Another compound: "CC(C)c1ccccc1SCc1cc(=O)cc(CSc2ccccc2C(C)C)o1"
32.6 µM (inactive)

* * *

# Tested on: XF498
# ASSAY_COMMENT: NCI tumour cell line growth inhibition, 48 h
Activity calls are given as the source filed them. No stated cut-off is given here; in the data, active = GI50 up to about 1.1 µM and inactive = higher.
TEST_READOUT: GI50

Worked set:
CC(C)(C)c1cc(Cc2ccc([N+](C)(C)C)cc2)c(O)c(C(C)(C)C)c1 : 13 µM (inactive)
CC(=O)NC(ON1C(=O)COc2ccccc21)C(Cl)(Cl)Cl (centres undefined) : > 100 µM (inactive)
c1ccc2c(c1)Sc1ccccc1N2C1CN2CCC1CC2 (centres undefined) : 13.9 µM (inactive)

Please look at the following compound next.
Which value of GI50 has been reported for "COc1ccc(S(=O)(=O)NNS(C)(=O)=O)cc1" in the records?
60.3 µM (inactive)

* * *

# Tested on: NCI-H522
# ASSAY_COMMENT: NCI tumour cell line growth inhibition, 48 h
The source made the active and inactive calls. Rule as the data show it: active = GI50 up to about 1.1 µM and inactive = higher.
Choose the fitting class; nothing outside active, inactive is accepted.

// below: answered compounds
CCCC[N+](CCCC)(CCCC)CCCC.O=S(=O)([O-])ON=C1c2ccccc2-c2ccccc21 : inactive
COC1=C(Br)[C@H](O)[C@@]2(C=C1Br)CC(C(=O)NCCCCCNC(=N)N)=NO2 : inactive
C[S+](C)([O-])=Nn1c(=O)n2n(c1=O)[C@H]1CC[C@@H]2C1 : inactive
O=C1NC(S(=O)(=O)O)=NNC12c1ccccc1-c1ccccc12 : inactive

Per the records of this test, what outcome belongs to "NCCCNc1ccc2c3c(nn2CCNCCO)-c2c(O)ccc(O)c2C(=O)c13" ?
inactive

* * *

# Tested on: Malme-3M
# ASSAY_COMMENT: NCI tumour cell line growth inhibition, 48 h
Activity calls are given as the source filed them. No stated cut-off is given here; in the data, active = GI50 up to about 1.1 µM and inactive = higher.
Choose the fitting class; nothing outside label 1 = active, label 0 = inactive is accepted.

Per the records of this test, what outcome belongs to "Cc1ccc2[nH]c3[nH]c(=S)[nH]c(=O)c3c2c1" ?
label 0

Another compound: OC(/C(=N/c1ccccc1)c1ccccc1)c1ccccc1 (configuration not stated)
label 0
